Molecular target: human IP6K2 (Homo sapiens)
Construct: human IP6K2 (1-426) gene; GST; made in house; host or cells: Sf-9 insect cells
Sequence (Q9UHH9 whole entry): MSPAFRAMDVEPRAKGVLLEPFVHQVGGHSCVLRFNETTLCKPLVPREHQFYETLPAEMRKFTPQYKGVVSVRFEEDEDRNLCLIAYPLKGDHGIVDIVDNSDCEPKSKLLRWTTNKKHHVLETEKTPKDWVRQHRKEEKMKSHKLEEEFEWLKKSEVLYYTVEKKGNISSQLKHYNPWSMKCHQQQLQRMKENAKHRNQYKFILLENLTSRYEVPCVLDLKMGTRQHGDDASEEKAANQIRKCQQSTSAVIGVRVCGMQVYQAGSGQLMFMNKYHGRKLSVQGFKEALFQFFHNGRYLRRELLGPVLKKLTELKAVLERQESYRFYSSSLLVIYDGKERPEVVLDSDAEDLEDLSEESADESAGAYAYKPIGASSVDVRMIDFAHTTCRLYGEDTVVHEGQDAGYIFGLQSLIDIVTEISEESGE
Experiment: IP6K enzyme inhibitory assay (ADP-Glo Kinase Assay), human IP6K2
Format: biochemical
Conditions: compound concentration 0.1 μM; read-out: ADP-Glo method inhibitory rate (%) human IP6K2
Reported Metric: inhibition at 0.1 µM (%)

Compound String: O=C(O)c1ccc2c(c1)[C@]1(CC[C@@H](Oc3ncc(Cl)cc3C(F)(F)F)CC1)C(=O)N2
inhibition at 0.1 µM [%]: 98
//
Compound String: N#Cc1cc(Cl)ccc1O[C@H]1CC[C@@]2(CC1)C(=O)Nc1ccc(C(=O)O)cc12
inhibition at 0.1 µM [%]: 101
//
Compound String: O=C(O)c1ccc2c(c1)[C@]1(CC[C@@H](Oc3ccccc3Cl)CC1)C(=O)N2
inhibition at 0.1 µM [%]: 97
//
Compound String: Cc1cc(C)cc(O[C@H]2CC[C@@]3(CC2)C(=O)Nc2ccc(C(=O)O)cc23)c1
inhibition at 0.1 µM [%]: 91
//
Compound String: O=C(O)c1ccc2c(n1)[C@]1(CC[C@H](Oc3ncc(C(F)(F)F)cc3Cl)CC1)C(=O)N2
inhibition at 0.1 µM [%]: 99
//
Compound String: O=C(O)c1ccc2c(c1)[C@]1(CC[C@@H](Oc3ccc(C(F)(F)F)nc3)CC1)C(=O)N2
inhibition at 0.1 µM [%]: 93
//
Compound String: Cc1cc(C(F)(F)F)cnc1O[C@H]1CC[C@]2(CC1)C(=O)Nc1ccc(C(=O)O)nc12
inhibition at 0.1 µM [%]: 99
//
Compound String: O=C(O)c1ccc2c(c1)[C@]1(CC[C@@H](Oc3ncc(C(F)(F)F)cc3Cl)CC1)C(=O)N2
inhibition at 0.1 µM [%]: 96
//
Compound String: O=C(O)c1ccc2c(c1)[C@]1(CC[C@H](Oc3cc(F)cnc3F)CC1)C(=O)N2
inhibition at 0.1 µM [%]: 89
//
Compound String: Cc1cccc(O[C@H]2CC[C@@]3(CC2)C(=O)Nc2ccc(C(=O)O)cc23)c1
inhibition at 0.1 µM [%]: 90
//
Compound String: Cc1ccccc1O[C@H]1CC[C@@]2(CC1)C(=O)Nc1ccc(C(=O)O)cc12
inhibition at 0.1 µM [%]: 93
//
Compound String: O=C(O)c1ccc2c(c1)[C@]1(CC[C@@H](Oc3ccc(F)cc3F)CC1)C(=O)N2
inhibition at 0.1 µM [%]: 97
//
Compound String: O=C(O)c1ccc2c(c1)[C@]1(CC[C@@H](Oc3cc(F)cc(Cl)c3)CC1)C(=O)N2
inhibition at 0.1 µM [%]: 93
//
Compound String: O=C(O)c1ccc2c(c1)[C@]1(CC[C@H](Oc3ncc(F)cc3F)CC1)C(=O)N2
inhibition at 0.1 µM [%]: 97
//
Compound String: O=C(O)c1ccc2c(n1)[C@]1(CC[C@H](Oc3ncc(C4CC4)cc3Cl)CC1)C(=O)N2
inhibition at 0.1 µM [%]: 99
